Test system: L1210 leukemia ip in BDF1 mice, survival T/C
Assay: NCI In Vivo Anticancer Drug Screen. Data for tumor model L1210 Leukemia (intraperitoneal) in B6D2F1 (BDF1) mice
Conditions: endpoint: mean survival time; dose: 200.0 mg/kg/injection; schedule: Q01DX009 (ip); vehicle: saline; higher = longer survival
Toxic doses and inconclusive results are not listed.
parameter: T/C

Would you please look over these solved cases?
CC(NC(=O)OCc1ccccc1)C(=O)Oc1cc(Cl)c(Cl)cc1Cl (stereo not drawn) ... 93 % of control
CCOC(=O)C(C)C(=O)C(=O)N=C(N)N (stereo not drawn) ... 100 % of control
COc1ccc(Cl)cc1NC(=O)Nc1cccc2c(O)cccc12 ... 100 % of control
O=C1OC(=O)C2C1C1(Cl)C(Cl)=C(Cl)C2(Cl)C2C(=O)OC(=O)C21 (stereo not drawn) ... 90 % of control
NCCS(=O)CCN ... 107 % of control
C/C=C/C=C(\CC)C(=O)OCC ... 96 % of control
Cc1ccc(C)c(C(=O)CCC(=O)O)c1 ... 95 % of control
O=C1c2ccccc2C(=O)c2c(O)c(N3CCCCC3)cc(O)c21 ... 89 % of control

Prompt: Any idea what T/C was measured for `O=C1NC(=O)C(O)(O)C(=O)N1` ?
Completion: 93 % of control

Prompt: Would you mind doing `COc1cc(C(=O)Nc2ccc(N(C)C)cc2)cc(OC)c1OC` as well?
Completion: 104 % of control

Prompt: Would you mind doing `COc1ccc(OC)c(NC(=O)OCC(Cl)(Cl)Cl)c1` as well?
Completion: 104 % of control

Prompt: Would you mind doing CNC(=S)N/N=C/C(=N\NC(=S)NC)C(O)C(O)C(O)C(O)CO (stereo not drawn) as well?
Completion: 100 % of control

====

Test system: L1210 leukemia ip in BDF1 mice, survival T/C
Assay: NCI In Vivo Anticancer Drug Screen. Data for tumor model L1210 Leukemia (intraperitoneal) in B6D2F1 (BDF1) mice
Details: endpoint: mean survival time; dose: 200.0 mg/kg/injection; schedule: Q04DX003 (ip); vehicle: saline with Tween-80; higher = longer survival
Toxic doses and inconclusive results are not listed.
parameter: T/C

Would you please look over these solved cases?
NC(=O)N/N=C/c1[nH]c(=S)[nH]c(=O)c1Cc1ccccc1 ... 94 % of control
CN(C)c1ccc(O)c2c1CC1CC3C(N(C)C)C(=O)C(C(N)=O)=C(O)C3(O)C(=O)C1=C2O (stereo not drawn) ... 108 % of control

From here, focus on the item given below.
Prompt: What is its T/C for L1210 leukemia ip in BDF1 mice, survival T/C? Entry: `CCO/C=C1\SC(=S)N(Cc2ccccc2)C1=O`
Completion: 99 % of control

====

Tested on: L1210 leukemia ip in BDF1 mice, survival T/C
Assay: NCI In Vivo Anticancer Drug Screen. Data for tumor model L1210 Leukemia (intraperitoneal) in B6D2F1 (BDF1) mice
Conditions: endpoint: mean survival time; dose: 150.0 mg/kg/injection; schedule: Q01DX001 (ip); vehicle: saline; higher = longer survival
Inconclusive results and toxic doses are left out.
parameter: T/C

Would you please look over these solved cases?
COc1cc(-c2c3c(cc4c2OCO4)CC(O)C(C(=O)O)C3)cc(OC)c1OC (stereo not drawn) ... 116 % of control
CN(CCN1CCCCC1)C(=O)C(O)(c1ccccc1)C1CCCCC1 (stereo not drawn) ... 97 % of control
NC1CCC(c2ccccc2)(c2ccccc2)C1=O (stereo not drawn) ... 102 % of control
CC1CN1P(=O)(N1CC1C)N1CC1C (stereo not drawn) ... 159 % of control
CC(C)CC1(C(C)C)C(=O)NC(=O)NC1=O ... 98 % of control

Prompt: Any idea what T/C was measured for `C[N+](C)(C)Cn1nnc2ccccc21` ?
Completion: 108 % of control

Prompt: Would you mind doing `CCc1c(C)nnn1-c1ccccc1` as well?
Completion: 91 % of control

Prompt: Would you mind doing `OCCN(CCO)Cc1cc(Cl)c2cccnc2c1O` as well?
Completion: 104 % of control
